Molecular target: ALK2 (Homo sapiens, UniProt Q04771, Q207D)
Construct: His tag (N, cleaved yes); made in house; host or cells: Sf9 insect cells (baculovirus)
Sequence (Q04771 201-499 Q207D): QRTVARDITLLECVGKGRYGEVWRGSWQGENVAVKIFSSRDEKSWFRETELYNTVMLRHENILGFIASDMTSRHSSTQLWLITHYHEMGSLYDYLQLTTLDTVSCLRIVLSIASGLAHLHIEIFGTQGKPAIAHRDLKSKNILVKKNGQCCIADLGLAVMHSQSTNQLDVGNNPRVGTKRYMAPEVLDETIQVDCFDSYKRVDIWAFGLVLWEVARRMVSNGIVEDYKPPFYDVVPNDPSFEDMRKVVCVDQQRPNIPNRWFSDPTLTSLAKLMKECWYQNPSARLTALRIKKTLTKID
Assay: Thermal shift kinase assay
Type: binding
Details: ALK2 ΔTm minus ALK5 ΔTm
What ΔTm Diff. was measured for each of the following?
Give bare numbers, in °C.

The following compounds have reported results that may help.
Entry under test: COc1cc(-c2cnc(N)c(-c3cc(OC)c(OC)c(OC)c3)c2)ccc1O . Its ΔTm Diff. was 1.7

Entry under test: COc1cc(-c2cnn3cc(-c4ccc(N5CCNCC5)cc4)cnc23)cc(OC)c1OC . Its ΔTm Diff. was 2.6

Entry under test: COc1ccc(-c2cc(-c3ccc(N4CCNCC4)cc3)cnc2N)cc1OC . Its ΔTm Diff. was 4.3

Entry under test: COc1cc(-c2cc(-c3ccc(O)cc3)cnc2N)cc(OC)c1OC . Its ΔTm Diff. was 1.5

Entry under test: COc1cc(-c2cc(-c3ccc(N4CCNCC4)cc3)cnc2OC)cc(OC)c1OC . Its ΔTm Diff. was 0.1

Lab note: each compound below needs its ΔTm Diff. filled in.
1. CC(C)Oc1cccc(-c2cc(-c3ccc(N4CCNCC4)cc3)cnc2N)c1
2. COc1cc(-c2cncc(-c3ccc(N4CCNCC4)cc3)c2)cc(OC)c1OC
3. COc1cc(-c2cc(-c3ccc(N4CCNCC4)cc3)cnc2Cl)cc(OC)c1OC

Result:
1. 1.0
2. 3.7
3. 3.8
